# test_description: Cytotoxicity assay (Alamar Blue, 24 h) on L929 fibroblasts
# Assay type: cell-based, murine
# applied_conditions: mouse, L929 fibroblasts, lower concentrations (37–100 μM), read-out: viability of L929 cells
metric_name: viability at 24 h

Which viability at 24 h value is on record for CN(C)c1ccc2nc3ccc(=[N+](C)C)cc-3sc2c1 [MB, methylene blue, reference compound] ? > 50%

Field request: viability at 24 h | item: CCNc1cc2[s+]c3cc(NCC)c(C)cc3nc2cc1C > 50%

* * *

# System: promastigote forms of Leishmania amazonensis PH8 strain
# test_description: Leishmanicidal activity assay on promastigotes (Alamar Blue, 24 h)
# Type: cell-based
# applied_conditions: Leishmania amazonensis, 10^6 parasites/mL
metric_name: IC50 (µM)
Give a bare numeral; the unit µM is implied.

GET /values?readout=IC50&item= CN(C)c1ccc2nc3ccc(=[N+](C)C)cc-3sc2c1 [MB, methylene blue, reference compound] 61.4

Fill in the blank: the reported IC50 of CCCCCCCCCCCCCCCCOP(=O)([O-])OCC[N+](C)(C)C [Miltefosine, miltefosine, reference compound] is ____. 23.2

* * *

Could you please report measured CC50 at 24 h for the items listed next?
# test_description: Cytotoxicity assay (Alamar Blue, 24 h) on J774.G8 macrophages
# Type: cell-based, murine
# applied_conditions: mouse, J774.G8 macrophages, 10^5 cells/well, read-out: CC50 J744.G8
Answer with the number, then the unit.

// query CC50 at 24 h value for entry CN(C)c1ccc2nc3ccc(=[N+](C)C)cc-3sc2c1 [MB, methylene blue, reference compound] 206 µM

Can you look up the measured CC50 at 24 h of CCCCCCCCCCCCCCCCOP(=O)([O-])OCC[N+](C)(C)C [Miltefosine, miltefosine, reference compound] for me? 156 µM

What does the record list as CC50 at 24 h for CCNc1cc2[s+]c3cc(NCC)c(C)cc3nc2cc1C ? 68.5 µM

* * *

# Tested on: HepG2 cells
# test_description: Cytotoxicity assay (Alamar Blue, 24 h) on HepG2 cells
# Type: cell-based, human
# applied_conditions: 0.5 × 10^5 cells/well
Provide the recorded CC50 for the entries that follow.
Dear colleague, please return just the value in µM, with no unit written.

Using the record for CCNc1cc2[s+]c3cc(NCC)c(C)cc3nc2cc1C.F[P-](F)(F)(F)(F)F.F[P-](F)(F)(F)(F)F.F[P-](F)(F)(F)(F)F.F[P-](F)(F)(F)(F)F.N#[O+].[Ru+2].c1cnc2c(c1)ccc1cccnc12.c1cnc2c(c1)ccc1cccnc12 , report its CC50. 35.1

For the compound shown here, CN(C)c1ccc2nc3ccc(=[N+](C)C)cc-3sc2c1 [MB, methylene blue, reference compound] , give the reported CC50. 96

Which CC50 reading was recorded for the compound CCNc1cc2[s+]c3cc(NCC)c(C)cc3nc2cc1C.F[P-](F)(F)(F)(F)F.F[P-](F)(F)(F)(F)F.F[P-](F)(F)(F)(F)F.F[P-](F)(F)(F)(F)F.N#[O+].[Ru+2].c1ccc(-c2ccccn2)nc1.c1ccc(-c2ccccn2)nc1 ? 34.2

Quick one: CC50 for CCNc1cc2[s+]c3cc(NCC)c(C)cc3nc2cc1C ? 71.6

* * *

# Tested on: L929 cells
# test_description: Cytotoxicity assay (Alamar Blue, 24 h) on L929 fibroblasts
# Assay type: cell-based, murine
# applied_conditions: 0.5 × 10^5 cells/well
Would you mind telling me the reported CC50 of each entry?

Endpoint output: CC50 of CCNc1cc2[s+]c3cc(NCC)c(C)cc3nc2cc1C.F[P-](F)(F)(F)(F)F.F[P-](F)(F)(F)(F)F.F[P-](F)(F)(F)(F)F.F[P-](F)(F)(F)(F)F.N#[O+].[Ru+2].c1cnc2c(c1)ccc1cccnc12.c1cnc2c(c1)ccc1cccnc12 . Value? 150 µM

Return reported CC50; argument: CCNc1cc2[s+]c3cc(NCC)c(C)cc3nc2cc1C.F[P-](F)(F)(F)(F)F.F[P-](F)(F)(F)(F)F.F[P-](F)(F)(F)(F)F.F[P-](F)(F)(F)(F)F.N#[O+].[Ru+2].c1ccc(-c2ccccn2)nc1.c1ccc(-c2ccccn2)nc1 270 µM

* * *

# test_description: Cytotoxicity assay (Alamar Blue, 24 h) on murine peritoneal macrophages
# Type: cell-based, Swiss Webster mice
# applied_conditions: male, Swiss Webster, mouse, murine peritoneal macrophages (MPMs, primary cells), exposures up to 70 μM
# Description: Murine peritoneal macrophages—MPMs (primary cells)—were isolated from male Swiss Webster mice stimulated with 1 mL of 3% Brewer’s thioglycollate medium, administered intraperitoneally. After 96 h, the animals were euthanized, and the MPMs were collected by peritoneal lavage with approximately 10 mL of RPMI 1640 medium. The cell suspension was centrifuged at 382× g for 10 min, and the pellet was resuspended in medium supplemented with 5% FBS, 1% Pen/Str, and 2 mM L-glutamine. […]
metric_name: viability at 24 h

Please report the recorded viability at 24 h for CCCCCCCCCCCCCCCCOP(=O)([O-])OCC[N+](C)(C)C [Miltefosine, miltefosine, reference compound] . > 50%

* * *

# Tested on: ex vivo amastigote forms of L. amazonensis LTB0016 strain
# test_description: Mitochondrial membrane potential (ΔΨm) by flow cytometry, TMRE, ex vivo amastigotes
# applied_conditions: exposed to IC50, 24 h
So I've got a bunch of molecules here, and I need their TMRE MFI, ex vivo Amastigotes Low Population values.
Answer with a bare number; do not write a unit.

Using the record for CN(C)c1ccc2nc3ccc(=[N+](C)C)cc-3sc2c1 [MB, methylene blue, reference compound] , report its TMRE MFI, ex vivo Amastigotes Low Population. 3237.43

Look up TMRE MFI, ex vivo Amastigotes Low Population for this molecule: CCNc1cc2[s+]c3cc(NCC)c(C)cc3nc2cc1C 3770.37

If you can, please state the reported TMRE MFI, ex vivo Amastigotes Low Population value of CCNc1cc2[s+]c3cc(NCC)c(C)cc3nc2cc1C.F[P-](F)(F)(F)(F)F.F[P-](F)(F)(F)(F)F.F[P-](F)(F)(F)(F)F.F[P-](F)(F)(F)(F)F.N#[O+].[Ru+2].c1cnc2c(c1)ccc1cccnc12.c1cnc2c(c1)ccc1cccnc12 . 7215.47

Find the recorded TMRE MFI, ex vivo Amastigotes Low Population belonging to CCNc1cc2[s+]c3cc(NCC)c(C)cc3nc2cc1C.F[P-](F)(F)(F)(F)F.F[P-](F)(F)(F)(F)F.F[P-](F)(F)(F)(F)F.F[P-](F)(F)(F)(F)F.N#[O+].[Ru+2].c1ccc(-c2ccccn2)nc1.c1ccc(-c2ccccn2)nc1 and report it. 4174.80
